Assay: Toxicity in ICR mouse assessed as lethal dose administered as IP dose measured upto 14 days
Details: in vivo, time < 14 day
measurement-name: LD50 at 336 h
Please provide the amount together with its unit, number first.

Query :: Would you kindly share the measured LD50 at 336 h for `COc1cc(-n2cnc3ccc(-c4ccc(C)c(N)c4)nc32)cc(OC)c1OC` ?
Result :: 150 mg/kg

====

Test system: HCT-116
Assay: Antiproliferative activity against human HCT-116 cells assessed as inhibition of cell growth measured after 48 hrs by MTT assay
Format: functional, cell-based
Settings: HCT-116, 48 h
This listing pairs compounds with measured pIC50.
Please report pIC50 as the negative decimal logarithm of the molar concentration, giving only the number.

COc1cc2c(c(OC)c1OC)-c1ccc(OC)c(=O)cc1[C@@H](NC(C)=O)CC2    7.77

Here is another compound to look at.
Query :: Checklist item: pIC50 tested on HCT-116, entry `COc1cc(-n2cnc3ccc(-c4ccc(C)c(N)c4)nc32)cc(OC)c1OC` , value?
Result :: 8.52

// data source = ChEMBL document CHEMBL5523751
